target: T1, E. coli-expressed recombinant human IL-13 (human, UniProt P35225 35-146); assay: BIAcore analysis 1, antibody captured, IL-13 in solution
T1 construct: Untagged E. coli-expressed human IL-13; also called hIL-13; human IL13 (CA)
T1 sequence (P35225 other isoform, or with tags, fused parts or gaps): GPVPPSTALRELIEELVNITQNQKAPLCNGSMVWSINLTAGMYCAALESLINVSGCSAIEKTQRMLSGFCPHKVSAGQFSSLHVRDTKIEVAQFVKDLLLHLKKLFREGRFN
Reported koff values are given for each entry in this list.
value.kind: koff (s⁻¹)

>  <binder>
chimaeric 6A1 (antibody, human IgG1, V domains shown, Parent murine 6A1 V regions on human IgG1/k wild type C regions, expressed in CHO cells; also called 6A1c; 6A1 chimaeric antibody) VH: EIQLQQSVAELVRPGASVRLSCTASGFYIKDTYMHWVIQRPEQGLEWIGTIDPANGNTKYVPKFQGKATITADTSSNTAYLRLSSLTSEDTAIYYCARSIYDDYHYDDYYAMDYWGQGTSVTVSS VL: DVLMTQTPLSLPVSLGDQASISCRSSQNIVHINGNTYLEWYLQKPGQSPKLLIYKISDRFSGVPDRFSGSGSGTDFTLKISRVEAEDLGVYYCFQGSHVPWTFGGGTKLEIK

>  <endpoint.result>
2e-05

$$$$
>  <binder>
L1+A1 (antibody, human IgG1, kappa, V domains shown, Humanised 6A1, VH construct A1 and VL construct L1, human gamma1 wild type / kappa constant regions; also called A1L1; humanised anti-IL-13 mAb L1+A1) VH: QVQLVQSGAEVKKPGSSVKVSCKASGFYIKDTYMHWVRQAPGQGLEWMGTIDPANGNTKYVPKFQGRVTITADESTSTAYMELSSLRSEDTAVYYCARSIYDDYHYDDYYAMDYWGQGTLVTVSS VL: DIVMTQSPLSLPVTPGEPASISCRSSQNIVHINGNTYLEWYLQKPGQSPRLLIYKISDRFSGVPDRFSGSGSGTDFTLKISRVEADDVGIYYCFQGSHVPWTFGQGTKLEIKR

>  <endpoint.result>
0.000155

$$$$
>  <binder>
monoclonal antibody 6A1 (antibody, IgG1, V domains shown, also called 6A1 parental mAb; parental mouse mAb 6A1) VH: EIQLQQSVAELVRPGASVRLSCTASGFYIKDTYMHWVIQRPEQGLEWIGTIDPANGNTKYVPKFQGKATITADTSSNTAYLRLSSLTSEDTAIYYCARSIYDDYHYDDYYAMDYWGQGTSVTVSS VL: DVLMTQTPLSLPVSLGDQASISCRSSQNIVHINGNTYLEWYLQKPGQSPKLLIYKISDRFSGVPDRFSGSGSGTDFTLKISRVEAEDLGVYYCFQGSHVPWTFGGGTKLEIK

>  <endpoint.result>
6.78e-05

$$$$
>  <binder>
L2+A1 (antibody, human IgG1, kappa, V domains shown, Humanised 6A1, VH construct A1 and VL construct L2; also called A1L2) VH: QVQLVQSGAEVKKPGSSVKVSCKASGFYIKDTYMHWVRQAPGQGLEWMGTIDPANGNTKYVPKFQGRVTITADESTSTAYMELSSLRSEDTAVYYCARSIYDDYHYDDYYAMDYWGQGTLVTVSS VL: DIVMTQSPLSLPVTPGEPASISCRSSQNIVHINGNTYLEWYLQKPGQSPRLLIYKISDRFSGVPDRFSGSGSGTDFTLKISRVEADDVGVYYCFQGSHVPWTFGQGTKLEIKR

>  <endpoint.result>
0.000156

$$$$

Where these numbers come from: patent US20110243928A1
